- Test system: SEM cells
- TEST_PROTOCOL: cell viability relative to DMSO control; higher = less cytotoxic
- STUDY_CONDITIONS: RPMI 5 mM glucose + 10% dialyzed FBS; 48 h; 0.19 µM

MOLECULE: N[C@@H](Cc1ccc(O)c(O)c1)C(=O)O
cell viability / %: 116
--
MOLECULE: NC[C@H]1O[C@H](O[C@H]2[C@H](O)[C@@H](O[C@H]3O[C@H](CO)[C@@H](O)[C@H](N)[C@H]3O)[C@H](N)C[C@@H]2N)[C@H](N)C[C@@H]1O
cell viability / %: 108
--
MOLECULE: CC(S)C(=O)NCC(=O)O (configuration not stated)
cell viability / %: 108
--
MOLECULE: Cc1ccc([S+](=O)([O-])Nc2cc(Cl)ccc2C(=O)Nc2nc(-c3ccccc3)cs2)cc1
cell viability / %: 120
--
MOLECULE: Nc1ccc([S+](=O)([O-])Nc2ncccn2)cc1
cell viability / %: 136
--
MOLECULE: COc1cc2ncnc(Nc3cccc(Cl)c3)c2cc1OC
cell viability / %: 58.8
--
MOLECULE: CC[C@@H]1C(=O)N(C)c2cnc(Nc3ccc(C(=O)NC4CCN(C)CC4)cc3OC)nc2N1C1CCCC1
cell viability / %: 23.2

====

- Test system: SEM cells
- TEST_PROTOCOL: cell viability relative to DMSO control; higher = less cytotoxic
- STUDY_CONDITIONS: HPLM + 10% dialyzed FBS; 48 h; 0.0211 µM

COMPOUND: C1COC(NC(C2CC2)C2CC2)=N1
UNIT_SYMBOL: %
cell viability: 95.3
//
COMPOUND: OCCN1C[C@H](O)[C@@H](O)[C@H](O)[C@H]1CO
UNIT_SYMBOL: %
cell viability: 118
//
COMPOUND: Cn1ccc2cc3c(cc21)CCN3C(=O)Nc1cccnc1
UNIT_SYMBOL: %
cell viability: 116
//
COMPOUND: O=C(O)Cc1cccc(OCCCN(Cc2cccc(C(F)(F)F)c2Cl)CC(c2ccccc2)c2ccccc2)c1
UNIT_SYMBOL: %
cell viability: 97.8
//
COMPOUND: CCc1cc(-c2n[nH]c(C)c2-c2ccc3c(c2)OCCO3)c(O)cc1O
UNIT_SYMBOL: %
cell viability: 117
//
COMPOUND: C[C@H]1Oc2cc(cnc2N)-c2c(nn(C)c2C#N)CN(C)C(=O)c2ccc(F)cc21
UNIT_SYMBOL: %
cell viability: 118
//
COMPOUND: C[C@H](NCc1ccc(OCc2cccc(F)c2)cc1)C(N)=O
UNIT_SYMBOL: %
cell viability: 107
//
COMPOUND: C[C@@H](N)C1CC[C@@H](CC1)C(=O)NC2=CC=NC=C2 (stereo partly specified)
UNIT_SYMBOL: %
cell viability: 108
//
COMPOUND: Nc1ccc([S+](=O)([O-])Nc2ncccn2)cc1
UNIT_SYMBOL: %
cell viability: 96.8
//
COMPOUND: COc1cc2ncnc(Nc3cccc(Cl)c3)c2cc1OC
UNIT_SYMBOL: %
cell viability: 105
//
COMPOUND: CC(C)Cn1cnc2c(N)nc3ccccc3c21
UNIT_SYMBOL: %
cell viability: 105
//
COMPOUND: Cc1ccc(/C=N/NC(=O)c2ccccc2Oc2ccccc2)o1
UNIT_SYMBOL: %
cell viability: 85.8
//
COMPOUND: CC(C)c1c(C(=O)Nc2ccccc2)c(-c2ccccc2)c(-c2ccc(F)cc2)n1CC[C@@H](O)C[C@@H](O)CC(=O)[O-]
UNIT_SYMBOL: %
cell viability: 113
//
COMPOUND: Oc1ccc2ccccc2c1SSc1c(O)ccc2ccccc12
UNIT_SYMBOL: %
cell viability: 116
//
COMPOUND: Clc1ccc2ncc(-c3cccc(NC4CNC4)n3)n2c1
UNIT_SYMBOL: %
cell viability: 125
//
COMPOUND: Cn1cnc([N+](=O)[O-])c1Sc1ncnc2nc[nH]c12
UNIT_SYMBOL: %
cell viability: 88
//
COMPOUND: N[C@@H](Cc1ccc(O)c(O)c1)C(=O)O
UNIT_SYMBOL: %
cell viability: 100
//
COMPOUND: C=CC(=O)Nc1ccc2ncnc(Nc3ccc(OCc4cccc(F)c4)c(Cl)c3)c2c1
UNIT_SYMBOL: %
cell viability: 84.4
//
COMPOUND: CC(S)C(=O)NCC(=O)O (stereo unspecified)
UNIT_SYMBOL: %
cell viability: 95
//
COMPOUND: COc1ccc([S+](=O)([O-])Nc2cccnc2Nc2ccc(O)cc2)cc1
UNIT_SYMBOL: %
cell viability: 116
//
COMPOUND: C[C@H](Cc1ccc(O)c(O)c1)[C@@H](C)Cc1ccc(O)c(O)c1
UNIT_SYMBOL: %
cell viability: 116
